As shown below, each of these compounds has a reported TGI value.
# Test system: HL-60(TB) leukemia
# Experiment notes: NCI tumour cell line growth inhibition, 48 h
Outcome measure: TGI

[[record]]
compound = "c1ccc2c3[nH]c(c2c1)=Nc1ccc(cc1)-c1nc2cc(ccc2o1)N=c1[nH]c(c2ccccc12)=Nc1ccc2nc(oc2c1)-c1ccc(cc1)N=3"
outcome_measure = "TGI"
reported_value = "> 100 µM"

[[record]]
compound = "Cc1cc(I)cc(CN(CCCN(C)C)C(C)C)c1O"
outcome_measure = "TGI"
reported_value = "36 µM"

[[record]]
compound = "O=C(O)c1nc2nc(Cl)c(Cl)nc2[nH]1"
outcome_measure = "TGI"
reported_value = "> 100 µM"

[[record]]
compound = "COc1cc(-c2ccc3cc(OC)c(OC)c(OC)c3c2)cc(OC)c1OC"
outcome_measure = "TGI"
reported_value = "> 100 µM"

[[record]]
compound = "COc1ccc2[nH]cc(/C=C(/C)c3ccncc3)c2c1"
outcome_measure = "TGI"
reported_value = "3.93 µM"

[[record]]
compound = "Nc1nc(-c2ccccc2)nc2oc(-c3cccs3)nc12"
outcome_measure = "TGI"
reported_value = "> 100 µM"

[[record]]
compound = "NC(=O)C(=Cn1c(=S)[nH]c2ccc([N+](=O)[O-])cc21)C(N)=O"
outcome_measure = "TGI"
reported_value = "> 100 µM"

[[record]]
compound = "O=C(NCc1ccccc1)c1n[nH][nH]c1=O"
outcome_measure = "TGI"
reported_value = "> 100 µM"

[[record]]
compound = "O=C1CCC2(c3ccc(Cl)cc3)Nc3ccncc3N12 (stereo not drawn)"
outcome_measure = "TGI"
reported_value = "> 10 µM"

[[record]]
compound = "O=[N+]([O-])c1ccc2[nH]nc(OCc3ccccc3Cl)c2c1"
outcome_measure = "TGI"
reported_value = "> 100 µM"

[[record]]
compound = "O=C(C1OC1c1ccc(Br)cc1O)C12CC3CC(CC(C3)C1)C2 (stereo not drawn)"
outcome_measure = "TGI"
reported_value = "40.9 µM"

[[record]]
compound = "COc1ccc(-n2c(C)nc3ccc(NC(=S)Nc4ccccc4)cc3c2=O)cc1"
outcome_measure = "TGI"
reported_value = "> 100 µM"

[[record]]
compound = "CCCCCC1=CC(=O)C1(Cl)Cl"
outcome_measure = "TGI"
reported_value = "4.06 µM"

[[record]]
compound = "Cc1ccnc(NS(=O)(=O)c2ccc(N=[N+]=[N-])cc2)n1"
outcome_measure = "TGI"
reported_value = "> 86.3 µM"

[[record]]
compound = "O=C(c1ccccn1)C1(N2CCCCC2)CCCCC1"
outcome_measure = "TGI"
reported_value = "> 100 µM"

[[record]]
compound = "Cc1ccc(N(Cc2ccccc2)Cc2ccccc2)cc1"
outcome_measure = "TGI"
reported_value = "> 100 µM"

[[record]]
compound = "O=C(CCCSc1nc(-c2ccccc2)cc(-c2ccccc2)n1)NO"
outcome_measure = "TGI"
reported_value = "6.39 µM"

[[record]]
compound = "O=C(Oc1ccc(Cl)cc1)c1ccccc1Nc1ccnc(C(F)(F)F)c1"
outcome_measure = "TGI"
reported_value = "> 100 µM"

[[record]]
compound = "CCOC(=S)SCC(=O)O"
outcome_measure = "TGI"
reported_value = "5.74 µM"

[[record]]
compound = "N=c1nnc2ccc(Cl)cc2n1O"
outcome_measure = "TGI"
reported_value = "> 100 µM"

[[record]]
compound = "CC(C)c1cc2c(cc1S(=O)(=O)O)[C@@]1(C)CCC[C@@](C)(C(=O)O)C1CC2 (stereo partly drawn)"
outcome_measure = "TGI"
reported_value = "> 100 µM"

[[record]]
compound = "O=C(O)c1ccc2c(c1C(=O)O)C(=O)OC2(c1ccc(O)cc1)c1ccc(O)cc1"
outcome_measure = "TGI"
reported_value = "> 100 µM"

[[record]]
compound = "N#Cc1c[nH]n2c(N=Nc3ccc(Cl)cc3)c(O)nc12"
outcome_measure = "TGI"
reported_value = "> 100 µM"

